# System: 786-0 complex spheroids with HUVEC/MSC, growth % test/control
# experimental_protocol: Anticancer human tumor 786-0 cell line growth inhibition [AhR];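 further: compound exposure lasted seven days before the read-out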
# condition_parameters: second compound 0.316 µM; first compound 3.16 µM; stronger effect = lower value
Items are presented alongside their recorded viability, T/C.
Field format: number, assumed %, no unit text.

Below, each entry is followed by its recorded viability, T/C result.
COc1cc(C2c3cc4c(cc3C(OC3OC5COC(C)OC5C(O)C3O)C3COC(=O)C23)OCO4)cc(OC)c1O (stereo not drawn) + Cc1cncc(-c2nc(NCCc3c[nH]c4ccccc34)c3ncn(C(C)C)c3n2)c1 : 33.4
O=C(C=Cc1cccc(S(=O)(=O)Nc2ccccc2)c1)NO + CC(CO)NC(=O)c1cc(-c2ccc(Cl)cc2)nn(-c2cnn(C)c2)c1=O : 79

viability, T/C for Nc1ccccc1NC(=O)c1ccc(CNC(=O)OCc2cccnc2)cc1 + Cc1cncc(-c2nc(NCCc3c[nH]c4ccccc34)c3ncn(C(C)C)c3n2)c1 is 115

* * *

Reported viability, T/C is given for each of the following molecules.
# Test system: 786-0 complex spheroids with HUVEC/MSC, growth % test/control
# experimental_protocol: Anticancer human tumor 786-0 cell line growth inhibition [AhR];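 further: compound exposure lasted seven days before the read-out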
# condition_parameters: second compound 3.16 µM; first compound 0.0949 µM; stronger effect = lower value
The answer is to be given in %; state only the numeric part.

Sample answers from the record:
CC(C)CC(NC(=O)C(Cc1ccccc1)NC(=O)c1cnccn1)B(O)O (stereo unspecified) + Cc1cncc(-c2nc(NCCc3c[nH]c4ccccc34)c3ncn(C(C)C)c3n2)c1 : 0.28
Nc1ncn(C2CC(O)C(CO)S2)c(=O)n1 (stereo unspecified) + CC(CO)NC(=O)c1cc(-c2ccc(Cl)cc2)nn(-c2cnn(C)c2)c1=O : 92.6
O=C(C=Cn1cnc(-c2cc(C(F)(F)F)cc(C(F)(F)F)c2)n1)NNc1cnccn1 + Cc1ccccc1N=Nc1ccc(NC(=O)c2ccnn2C)c(C)c1 : 101
CC(C)CC(NC(=O)C(Cc1ccccc1)NC(=O)c1cnccn1)B(O)O (stereo unspecified) + Cc1ccccc1N=Nc1ccc(NC(=O)c2ccnn2C)c(C)c1 : 0.92
CCc1c2c(nc3ccc(O)cc13)-c1cc3c(c(=O)n1C2)COC(=O)[C@]3(O)CC + Cc1cncc(-c2nc(NCCc3c[nH]c4ccccc34)c3ncn(C(C)C)c3n2)c1 : 1.6

Lab note: measured viability, T/C of CCc1c2c(nc3ccc(O)cc13)-c1cc3c(c(=O)n1C2)COC(=O)[C@]3(O)CC + CC(CO)NC(=O)c1cc(-c2ccc(Cl)cc2)nn(-c2cnn(C)c2)c1=O was 2.91

* * *

# System: 786-0 complex spheroids with HUVEC/MSC, growth % test/control
# experimental_protocol: Anticancer human tumor 786-0 cell line growth inhibition [AhR];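 further: compound exposure lasted seven days before the read-out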
# condition_parameters: second compound 0.1 µM; first compound 1 µM; stronger effect = lower value
Measured viability, T/C by item
Your answer should be a plain number; it is taken to be in %.

// viability, T/C value for CC(C)c1c(-c2ccccc2)nc2c(C#N)c[nH]n2c1=O + Cc1cncc(-c2nc(NCCc3c[nH]c4ccccc34)c3ncn(C(C)C)c3n2)c1 : 123

Lab note: measured viability, T/C of Nc1ccccc1NC(=O)c1ccc(CNC(=O)OCc2cccnc2)cc1 + Cc1ccccc1N=Nc1ccc(NC(=O)c2ccnn2C)c(C)c1 was 103

Recorded result, Nc1ccccc1NC(=O)c1ccc(CNC(=O)OCc2cccnc2)cc1 + CC(CO)NC(=O)c1cc(-c2ccc(Cl)cc2)nn(-c2cnn(C)c2)c1=O , viability, T/C: 104

Reported viability, T/C ( Nc1ncn(C2CC(O)C(CO)O2)c(=O)n1 (stereo unspecified) + Cc1ccccc1N=Nc1ccc(NC(=O)c2ccnn2C)c(C)c1 ) = 90.6

For CC1(C)CCC(CN2CCN(c3ccc(C(=O)NS(=O)(=O)c4ccc(NCC5CCOCC5)c([N+](=O)[O-])c4)c(Oc4cnc5[nH]ccc5c4)c3)CC2)=C(c2ccc(Cl)cc2)C1 + Cc1cncc(-c2nc(NCCc3c[nH]c4ccccc34)c3ncn(C(C)C)c3n2)c1 the compound record lists viability, T/C as 109

# viability, T/C (compound: Nc1ncn(C2CC(O)C(CO)O2)c(=O)n1 (stereo unspecified) + Cc1cncc(-c2nc(NCCc3c[nH]c4ccccc34)c3ncn(C(C)C)c3n2)c1 ) is 95.8

* * *

# Tested on: 786-0 complex spheroids with HUVEC/MSC, growth % test/control
# experimental_protocol: Anticancer human tumor 786-0 cell line growth inhibition [AhR];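 further: compound exposure lasted seven days before the read-out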
# condition_parameters: second compound 0.1 µM; first compound 1 µM; stronger effect = lower value
Items are presented alongside their recorded viability, T/C.
Note: unit % is implicit; provide only the numeric part.

Solved entries:
O=C(c1cc(Cc2n[nH]c(=O)c3ccccc23)ccc1F)N1CCN(C(=O)C2CC2)CC1 + CC(CO)NC(=O)c1cc(-c2ccc(Cl)cc2)nn(-c2cnn(C)c2)c1=O : 102
O=C(C=Cc1cccc(S(=O)(=O)Nc2ccccc2)c1)NO + CC(CO)NC(=O)c1cc(-c2ccc(Cl)cc2)nn(-c2cnn(C)c2)c1=O : 107
O=C(c1cc(Cc2n[nH]c(=O)c3ccccc23)ccc1F)N1CCN(C(=O)C2CC2)CC1 + Cc1ccccc1N=Nc1ccc(NC(=O)c2ccnn2C)c(C)c1 : 104
COc1cc(Nc2ncc3c(n2)-c2ccc(Cl)cc2C(c2c(F)cccc2OC)=NC3)ccc1C(=O)O + Cc1cncc(-c2nc(NCCc3c[nH]c4ccccc34)c3ncn(C(C)C)c3n2)c1 : 104
COc1ccc([C@@H](O)c2cc(-c3ncnc4cc(N5CCOCC5)ccc34)c(F)cc2Cl)nn1 + Cc1ccccc1N=Nc1ccc(NC(=O)c2ccnn2C)c(C)c1 : 102
O=C(c1cc(Cc2n[nH]c(=O)c3ccccc23)ccc1F)N1CCN(C(=O)C2CC2)CC1 + Cc1cncc(-c2nc(NCCc3c[nH]c4ccccc34)c3ncn(C(C)C)c3n2)c1 : 125

The recorded viability, T/C for entry NS(=O)(=O)OCC1CC(n2ccc3c(NC4CCc5ccccc54)ncnc32)CC1O (stereo not drawn) + Cc1cncc(-c2nc(NCCc3c[nH]c4ccccc34)c3ncn(C(C)C)c3n2)c1 equals 35

COc1ccc([C@@H](O)c2cc(-c3ncnc4cc(N5CCOCC5)ccc34)c(F)cc2Cl)nn1 + CC(CO)NC(=O)c1cc(-c2ccc(Cl)cc2)nn(-c2cnn(C)c2)c1=O yielded viability, T/C of 115

For this molecule ( Nc1ncn(C2CC(O)C(CO)O2)c(=O)n1 (stereo not drawn) + CC(CO)NC(=O)c1cc(-c2ccc(Cl)cc2)nn(-c2cnn(C)c2)c1=O ), measured viability, T/C is 62

// viability, T/C lookup, molecule = CC1COCCN1c1cc(C2(S(C)(=N)=O)CC2)nc(-c2ccnc3[nH]ccc23)n1 (stereo not drawn) + Cc1cncc(-c2nc(NCCc3c[nH]c4ccccc34)c3ncn(C(C)C)c3n2)c1 , result: 113

Reported viability, T/C for COc1cc(Nc2ncc3c(n2)-c2ccc(Cl)cc2C(c2c(F)cccc2OC)=NC3)ccc1C(=O)O + Cc1ccccc1N=Nc1ccc(NC(=O)c2ccnn2C)c(C)c1 was 84.7

For this molecule ( O=C(C=Cc1cccc(S(=O)(=O)Nc2ccccc2)c1)NO + Cc1ccccc1N=Nc1ccc(NC(=O)c2ccnn2C)c(C)c1 ), measured viability, T/C is 94.3

Recorded result, CC1COCCN1c1cc(C2(S(C)(=N)=O)CC2)nc(-c2ccnc3[nH]ccc23)n1 (stereo not drawn) + Cc1ccccc1N=Nc1ccc(NC(=O)c2ccnn2C)c(C)c1 , viability, T/C: 101

Lookup result for Nc1ccn(C2OC(CO)C(O)C2(F)F)c(=O)n1 (stereo not drawn) + Cc1ccccc1N=Nc1ccc(NC(=O)c2ccnn2C)c(C)c1 ; measured viability, T/C: 5.06

* * *

The reader will find reported IC50 values listed item by item below.
# System: 786-0 complex spheroids with HUVEC/MSC, growth % test/control
# experimental_protocol: Anticancer human tumor 786-0 cell line growth inhibition [AhR];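 further: compound exposure lasted seven days before the read-out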
# condition_parameters: curve of first compound; second compound 10 µM

Completed entries (count: 4):
CC1COCCN1c1cc(C2(S(C)(=N)=O)CC2)nc(-c2ccnc3[nH]ccc23)n1 (stereo not given) + Cc1cncc(-c2nc(NCCc3c[nH]c4ccccc34)c3ncn(C(C)C)c3n2)c1 : < 0.0316 µM
CC1(C)CCC(CN2CCN(c3ccc(C(=O)NS(=O)(=O)c4ccc(NCC5CCOCC5)c([N+](=O)[O-])c4)c(Oc4cnc5[nH]ccc5c4)c3)CC2)=C(c2ccc(Cl)cc2)C1 + Cc1cncc(-c2nc(NCCc3c[nH]c4ccccc34)c3ncn(C(C)C)c3n2)c1 : < 0.0316 µM
COc1cc(C2c3cc4c(cc3C(OC3OC5COC(C)OC5C(O)C3O)C3COC(=O)C23)OCO4)cc(OC)c1O (stereo not given) + Cc1cncc(-c2nc(NCCc3c[nH]c4ccccc34)c3ncn(C(C)C)c3n2)c1 : < 0.0316 µM
O=C(c1cc(Cc2n[nH]c(=O)c3ccccc23)ccc1F)N1CCN(C(=O)C2CC2)CC1 + CC(CO)NC(=O)c1cc(-c2ccc(Cl)cc2)nn(-c2cnn(C)c2)c1=O : > 10 µM

// next entry
Value of measured IC50 for the entry CC[C@@]1(O)C(=O)OCc2c1cc1n(c2=O)Cc2cc3c(CN(C)C)c(O)ccc3nc2-1 + Cc1ccccc1N=Nc1ccc(NC(=O)c2ccnn2C)c(C)c1 : 0.027 µM
